As shown below, each of these compounds has a reported logD value.
# ASSAY METHOD TEXT: Apparent partition coefficient 1-octanol/phosphate buffer pH 7.4
# Format: physicochemical
# CONDITION DESCRIPTION: octanol/phosphate buffer, pH 7.4, Partition coefficients (P)

1) CC[C@H](C(=O)OCc1ccccc1C)[C@H](CO)Cc1cncn1C = 2.27

Switching to the query record.
Incoming: Fill in: logD of CC[C@H](C(=O)OC(C)c1ccccc1)[C@H](CO)Cc1cncn1C (stereo partly shown) is ___
Outgoing: 2.08

###

# ASSAY METHOD TEXT: Hydrolysis/stability of O-acyl pilocarpic acid esters in plasma-free buffer (specific base catalysis)
# Type: physicochemical
# CONDITION DESCRIPTION: 37° C.; based on hydroxide ion activity
kOH (catalytic rate constant, specific base-catalyzed hydrolysis) of 4 M⁻¹ min⁻¹ or higher: Fulfilled. Under 4 M⁻¹ min⁻¹: Not fulfilled.

1) CC[C@H](C(=O)OCc1ccc(Cl)cc1)[C@H](COC(=O)c1ccccc1)Cc1cncn1C = Not fulfilled
2) CC[C@H](C(=O)OCc1ccccc1)[C@H](COC(=O)Cc1ccccc1)Cc1cncn1C = Fulfilled
3) CCCC(=O)OCC(Cc1cncn1C)C(CC)C(=O)OCc1ccc(C)cc1 (stereo not drawn) = Not fulfilled
4) CC[C@H](C(=O)OCc1ccc(C)cc1)[C@H](COC(C)=O)Cc1cncn1C = Fulfilled

Incoming: Could you tell me if the measured kOH (catalytic rate constant, specific base-catalyzed hydrolysis) of CC[C@H](C(=O)OCCc1ccccc1)[C@H](COC(=O)c1ccccc1)Cc1cncn1C reaches 4 M⁻¹ min⁻¹ or more?
Outgoing: Not fulfilled

Incoming: For this molecule, is measured kOH (catalytic rate constant, specific base-catalyzed hydrolysis) 4 M⁻¹ min⁻¹ or higher? CC[C@H](C(=O)OCc1ccccc1)[C@H](COC(=O)c1ccccc1)Cc1cncn1C
Outgoing: Not fulfilled

Incoming: Please check the record CC[C@H](C(=O)OCc1ccccc1)[C@H](COC(=O)c1cccc(Cl)c1)Cc1cncn1C and state if its kOH (catalytic rate constant, specific base-catalyzed hydrolysis) is at or above 4 M⁻¹ min⁻¹.
Outgoing: Fulfilled

Incoming: Hi team, for CC[C@H](C(=O)OCc1ccccc1)[C@H](COC(=O)c1cccnc1)Cc1cncn1C , is the recorded kOH (catalytic rate constant, specific base-catalyzed hydrolysis) at or above 4 M⁻¹ min⁻¹?
Outgoing: Fulfilled
